B1: Subtilisin-chymotrypsin inhibitor-2A, P01053 (parent)
chain: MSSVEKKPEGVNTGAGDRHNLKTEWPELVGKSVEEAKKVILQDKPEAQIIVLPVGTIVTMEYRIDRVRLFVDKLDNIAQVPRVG

variants of: B1; details: Hordeum vulgare; pH 6.25; 25 °C; GdnHCl; Fluorescence; MES 50 mM; reversible: yes; structure 2CI2; whole UniProt chain shown
ddG of mutation (higher = less stable) reference
Report only the number, with the unit kcal/mol understood.

Answered cases to consult:
# variant-identifier, meas-value
rows = [
    ("L41G", 2.09),
    ("L52A V58A", 2.95),
    ("D65A", 1.02),
    ("E35D", -0.36),
    ("K73N", 1.21),
    ("F70V", 1.41),
    ("L52V", 1.02),
    ("E27Q", 0.57),
]

// returns reported ddG of mutation (higher = less stable) for input V39A
0.06

Value lookup for ddG of mutation (higher = less stable); key = I57A
1.28

# ddG of mutation (higher = less stable) lookup, item P26A A36G
1.3
